Tested on: Candida albicans
Experiment: Effect on sterol composition in Candida albicans isolate 14 expressing wild type erg11 and erg5 assessed as 14 -Methylergosta-8,24(28)-dien-3beta,6alpha-diol level after 2 hrs by gas chromatography
Type: functional
Design: concentration or dose not given beside the values
Reported Activity values follow for various molecules
Just so you know, I need the unit written after the number.

Example results:
[[record]]
molecule = "CC(=O)N1CCN(c2ccc(OCC3COC(Cn4ccnc4)(c4ccc(Cl)cc4Cl)O3)cc2)CC1 (stereo not given)"
data_value = "37.2%"

[[record]]
molecule = "Clc1ccccc1C(c1ccccc1)(c1ccccc1)n1ccnc1"
data_value = "35%"

[[record]]
molecule = "C[C@@H](c1ncncc1F)[C@](O)(Cn1cncn1)c1ccc(F)cc1F"
data_value = "28.6%"

[[record]]
molecule = "OC(Cn1cncn1)(Cn1cncn1)c1ccc(F)cc1F"
data_value = "25.4%"


Shifting focus to the molecule that follows.
**Q:** Look up Activity for this molecule: CCC(C)n1ncn(-c2ccc(N3CCN(c4ccc(OCC5COC(Cn6cncn6)(c6ccc(Cl)cc6Cl)O5)cc4)CC3)cc2)c1=O (stereo not given)
**A:** 38%
